Values were extracted from patent US20150337051A1.

- ASSAY_TARGET: T1, TEM-1 in a native state on aortic smooth muscle cells (AoSMC) (UniProt Q9HCU0 18-757, limits assumed)
- T1 construct: whole, on cells; also called tumor endothelial marker 1; endosialin
- T1 sequence (looked up): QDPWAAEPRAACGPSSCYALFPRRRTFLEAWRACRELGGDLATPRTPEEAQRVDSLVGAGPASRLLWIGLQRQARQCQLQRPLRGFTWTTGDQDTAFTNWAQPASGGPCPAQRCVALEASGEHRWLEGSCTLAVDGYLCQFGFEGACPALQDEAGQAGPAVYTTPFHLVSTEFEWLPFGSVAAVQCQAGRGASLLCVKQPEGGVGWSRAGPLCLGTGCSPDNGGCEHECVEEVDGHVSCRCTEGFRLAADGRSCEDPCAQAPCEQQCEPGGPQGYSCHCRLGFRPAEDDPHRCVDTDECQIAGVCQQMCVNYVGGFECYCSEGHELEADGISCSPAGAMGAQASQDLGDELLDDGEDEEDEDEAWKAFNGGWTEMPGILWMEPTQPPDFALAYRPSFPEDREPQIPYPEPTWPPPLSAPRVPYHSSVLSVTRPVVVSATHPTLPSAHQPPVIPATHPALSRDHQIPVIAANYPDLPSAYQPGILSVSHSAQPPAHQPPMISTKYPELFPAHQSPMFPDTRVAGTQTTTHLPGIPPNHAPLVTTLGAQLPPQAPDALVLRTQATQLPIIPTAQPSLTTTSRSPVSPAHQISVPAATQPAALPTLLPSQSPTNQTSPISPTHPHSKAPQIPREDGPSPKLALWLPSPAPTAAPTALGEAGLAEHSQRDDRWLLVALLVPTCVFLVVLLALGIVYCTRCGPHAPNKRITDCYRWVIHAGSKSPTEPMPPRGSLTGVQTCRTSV
- METHOD: flow cytometry on AoSMC, 10 µg/mL antibody, FITC goat anti-rat secondary; cells only 2.5, secondary only 3.5
MEASUREMENT_KIND: Geometric mean of resulting FACS plot
In your answer, state the number alone without any accompanying words.

Antibody 7D3 (antibody, V domains shown, Rat monoclonal antibody from hybridoma, IgG2a/kappa; also called 7D3.F5.E8.D8; ATCC PTA-12538) VH: EVQLVESGGGLVQPKGSLKLSCAASGFDFKTYAMSWVRQAPGKGLDWIVTISTKGHNYATLYADSVKERFTISRDDSQSMVYLQMNNLKTEDTALYYCTVAGYNFDYWGQGVMVTVSS VL: DVVLTQTPSILSATIGQSVSISCRSSQSLLDSDGNTYLYWFLQRPGQSPQRLIYLVSNLGSGVPNRFSGSGSGTDFTLKISGVEAGDLGVYYCMQATHAPFTFGSGTKLEIK | 63.4
Antibody 10H8 (antibody, V domains shown, Rat monoclonal antibody from hybridoma, IgG2a/kappa; also called 10H8.D7.E3; ATCC PTA-12546) VH: QVQLKESGPGLVQPSQTLSLTCTVSGFSLTNYNIHWVRQPPGKGLEWMGAIWSGGSADYDSALKSRLSISRDTSKSQVFLKMDNLQTEDTAIYYCTRDQLGGWYFDFWGPGTKVTVSS VL: DIVMTQTPSSQAVSAGEKVTMSCTSGQSLLYNENNKNYLAWYQLKPGQSPRLLIYWASTRESGVPDRFIGSGSGTYFTLTISSVQAEDLAVYYCQQYFRFPRTFGGGTKLELK | 52.7

Next binder, please.
Memo: Antibody 14G3 (antibody, V domains shown, Rat monoclonal antibody from hybridoma, IgG2a/kappa; also called 14G3.H4.F11.H7; ATCC PTA-12539) VH: EVQLVEFGGGLVQPGRSLKLSCAASGFTFSDYNLAWVRQAPKKGLEWVATISYNGSEIYYRDSVKGRFTISRDNAKNTLYLQMDSLRSEDTATYYCARHWREYYSSYSSYVMDAWGQGASVTVSS VL: DIVMTQTPSSQAVSAGAKVTLSCKSSQSLLYNKNKKNYLAWYQQKPGQSPKLLIYWASTRESGVPDRFIGSGSGTDFTLTISSVQAEDLAIYYCQQYYTFPTFGAGTKLELK , reported Geometric mean of resulting FACS plot: 94.2
